Each entry below lists one item and its recorded Ki value.
Target: human norepinephrine transporter (NET) (Homo sapiens (Human), UniProt P23975)
Sequence (P23975 whole entry): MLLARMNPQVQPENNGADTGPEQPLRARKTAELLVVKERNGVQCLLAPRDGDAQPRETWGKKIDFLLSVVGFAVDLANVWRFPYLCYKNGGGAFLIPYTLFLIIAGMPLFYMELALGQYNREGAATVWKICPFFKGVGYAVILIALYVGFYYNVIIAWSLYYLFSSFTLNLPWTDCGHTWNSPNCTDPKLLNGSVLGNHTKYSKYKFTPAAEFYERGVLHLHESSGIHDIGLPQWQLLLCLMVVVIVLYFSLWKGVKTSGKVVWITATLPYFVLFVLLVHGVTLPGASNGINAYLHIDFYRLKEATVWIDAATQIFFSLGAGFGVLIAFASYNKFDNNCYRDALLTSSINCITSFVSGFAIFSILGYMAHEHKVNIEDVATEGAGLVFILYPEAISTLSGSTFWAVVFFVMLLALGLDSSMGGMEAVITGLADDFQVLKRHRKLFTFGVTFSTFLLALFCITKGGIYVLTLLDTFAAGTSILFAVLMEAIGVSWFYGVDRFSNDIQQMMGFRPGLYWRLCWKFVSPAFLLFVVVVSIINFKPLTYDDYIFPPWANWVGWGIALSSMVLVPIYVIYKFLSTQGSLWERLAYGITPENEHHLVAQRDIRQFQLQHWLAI
Test: Binding assay to human norepinephrine transporter (NET) ([3H]-Nisoxetin)
Details: Table 2, dual compounds, human NET enriched membranes, read-out: Ki (nM) NET Hum

[
  {
    "molecule": "CNCCC(Oc1cccc2ncccc12)c1ccc(F)s1 (stereo not drawn) [Example 42]",
    "target.entity": "human norepinephrine transporter (NET) (Homo sapiens (Human), UniProt P23975)",
    "Ki": "100 to 500 nM"
  },
  {
    "molecule": "NCCC(Oc1cccc2cnccc12)c1cccs1 (stereo not drawn) [Example 44]",
    "target.entity": "human norepinephrine transporter (NET) (Homo sapiens (Human), UniProt P23975)",
    "Ki": "100 to 500 nM"
  },
  {
    "molecule": "CNCC[C@@H](Oc1cccc2ccncc12)c1sccc1F [Example 87]",
    "target.entity": "human norepinephrine transporter (NET) (Homo sapiens (Human), UniProt P23975)",
    "Ki": "100 to 500 nM"
  },
  {
    "molecule": "CNCC[C@@H](Oc1cccc2ccncc12)c1cccs1 [Example 13]",
    "target.entity": "human norepinephrine transporter (NET) (Homo sapiens (Human), UniProt P23975)",
    "Ki": "100 to 500 nM"
  }
]

Find the recorded Ki belonging to CNCC[C@@H](Oc1cccc2ncccc12)c1cccs1 [Example 15] and report it. 100 to 500 nM

Lookup CNCC[C@H](Oc1cccc2ccncc12)c1ccsc1 [Example 69] 500 to 1000 nM

Now consider CNCC[C@@H](Oc1cnc2ccccc2c1)c1cccs1 [Example 94] . 100 to 500 nM

Please do the same for CNCC[C@H](Oc1cccc2ncccc12)c1ccsc1 [Example 67] as well. 100 to 500 nM

Also CNCCC(Oc1cccc2cnccc12)c1ccncc1 (stereo not drawn) [Example 25] ? 100 to 500 nM

# iterate: CNCCC(Oc1cccc2ncccc12)c1nccs1 (stereo not drawn) [Example 72] 500 to 1000 nM

Record: CNCCC(Oc1cccc2cnccc12)c1cccs1 (stereo not drawn) [Example 3] < 100 nM

Next up: CNCC[C@H](Oc1cccc2c(C)nccc12)c1cccs1 [Example 65] 100 to 500 nM

Subsequent entry: CNCC[C@H](Oc1cccc2cnccc12)c1cccs1 [Example 11] < 100 nM

Record: CNCC[C@H](Oc1cccc2ncccc12)c1ccc(F)s1 [Example 51] 100 to 500 nM

Then this molecule: CNCCC(Oc1cccc2cccnc12)c1cccs1 (stereo not drawn) [Example 1] < 100 nM
